TARGET_OR_SYSTEM: CIB1 and αIIb interaction (CIB1-GST : F-αIIb peptide) (Homo sapiens, UniProt Q99828)
Construct: made in house; host or cells: BL-21 plus RIL cells (E. coli)
Sequence (Q99828 whole entry): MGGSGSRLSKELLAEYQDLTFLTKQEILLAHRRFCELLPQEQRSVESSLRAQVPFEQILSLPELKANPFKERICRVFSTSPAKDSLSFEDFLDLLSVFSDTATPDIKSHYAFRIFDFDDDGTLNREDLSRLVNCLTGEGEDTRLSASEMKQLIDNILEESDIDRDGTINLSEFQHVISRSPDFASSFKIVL
ASSAY_TEXT: FP assay, 1536-well qHTS format (primary and confirmatory screen)
Format: binding
MEASUREMENT_CONTEXT: qHTS primary screen hits, Table S2; negative sign = inhibitory curve; several classes where COUNT > 1
Decision: Curve Class compared against -2; not below it gives satisfied, below it gives not satisfied.

MOLECULE	TARGET_OR_SYSTEM	CAT
O=C(O)c1cc(O)c2c(c1)C(=O)c1cccc(O)c1C2=O	CIB1 and αIIb interaction (CIB1-GST : F-αIIb peptide) (Homo sapiens, UniProt Q99828)	not satisfied
CN(C)CCCCCCNC(=O)c1cccc(-c2cc(O)c3ncccc3c2)c1.O=C(O)C(F)(F)F	CIB1 and αIIb interaction (CIB1-GST : F-αIIb peptide) (Homo sapiens, UniProt Q99828)	satisfied
O=[N+]([O-])c1ccc(O)c2ncccc12	CIB1 and αIIb interaction (CIB1-GST : F-αIIb peptide) (Homo sapiens, UniProt Q99828)	satisfied
Cn1cnc(-c2nccc3c(O)nc(OCCCC(F)(F)F)nc23)c1.O=C(O)C(F)(F)F	CIB1 and αIIb interaction (CIB1-GST : F-αIIb peptide) (Homo sapiens, UniProt Q99828)	not satisfied
COc1ccc(-n2ncc3c2CCCC3NC(=O)c2ccccc2F)cc1.O=C(O)C(F)(F)F (stereo not drawn)	CIB1 and αIIb interaction (CIB1-GST : F-αIIb peptide) (Homo sapiens, UniProt Q99828)	not satisfied
CC(C)=CCC1C(=O)N(c2ccccc2)N(c2ccccc2)C1=O	CIB1 and αIIb interaction (CIB1-GST : F-αIIb peptide) (Homo sapiens, UniProt Q99828)	not satisfied
CCN1CCN(c2cccc(Nc3nn4c(=O)c5ccccc5nc4s3)c2)CC1.Cl	CIB1 and αIIb interaction (CIB1-GST : F-αIIb peptide) (Homo sapiens, UniProt Q99828)	not satisfied
Cc1ccc(S(=O)(=O)Nc2cnccc2C(=O)Nc2nc(-c3ccc(Cl)cc3)cs2)cc1.O=C(O)C(F)(F)F	CIB1 and αIIb interaction (CIB1-GST : F-αIIb peptide) (Homo sapiens, UniProt Q99828)	satisfied
CCOc1cc(C(C)(C)C)ccc1C1=N[C@@](C)(c2ccc(Cl)cc2)[C@@](C)(c2ccc(Cl)cc2)N1C(=O)N1CCN(CC(=O)N2CCOCC2)CC1	CIB1 and αIIb interaction (CIB1-GST : F-αIIb peptide) (Homo sapiens, UniProt Q99828)	not satisfied
NS(=O)(=O)c1ccc(Cc2c(-c3ccc(F)c(-c4cccs4)c3)nn(-c3nc(C(=O)O)cs3)c2CC2CC2)cc1F.O=C(O)C(F)(F)F	CIB1 and αIIb interaction (CIB1-GST : F-αIIb peptide) (Homo sapiens, UniProt Q99828)	not satisfied
CC(=O)NCc1ccc(-c2csc(Nc3cccc(C)c3)n2)o1.O=C(O)C(F)(F)F	CIB1 and αIIb interaction (CIB1-GST : F-αIIb peptide) (Homo sapiens, UniProt Q99828)	not satisfied
COc1ccc(-c2csc(NC(=O)c3ccncc3NS(=O)(=O)c3ccc(C)cc3)n2)cc1.O=C(O)C(F)(F)F	CIB1 and αIIb interaction (CIB1-GST : F-αIIb peptide) (Homo sapiens, UniProt Q99828)	not satisfied
O=C(N/N=C1\C(=O)N(CCc2ccccc2)c2ccccc21)c1cccnc1	CIB1 and αIIb interaction (CIB1-GST : F-αIIb peptide) (Homo sapiens, UniProt Q99828)	satisfied
O=C(Nc1nc(-c2ccccc2)cs1)c1ccncc1NS(=O)(=O)c1cccs1.O=C(O)C(F)(F)F	CIB1 and αIIb interaction (CIB1-GST : F-αIIb peptide) (Homo sapiens, UniProt Q99828)	not satisfied
Cc1cc(NS(=O)(=O)c2ccc(Nc3nc(-c4ccc(C)c(C)c4)cs3)cc2)no1.O=C(O)C(F)(F)F	CIB1 and αIIb interaction (CIB1-GST : F-αIIb peptide) (Homo sapiens, UniProt Q99828)	not satisfied
O=C(NNC(=O)c1nc2ccccc2[nH]1)OCc1ccccc1	CIB1 and αIIb interaction (CIB1-GST : F-αIIb peptide) (Homo sapiens, UniProt Q99828)	not satisfied
Nc1nc2c(s1)C(c1ccccc1)CC(=O)N2 (stereo not drawn)	CIB1 and αIIb interaction (CIB1-GST : F-αIIb peptide) (Homo sapiens, UniProt Q99828)	not satisfied
Cc1ccnc(NC(=S)N2CC[C@@H](Nc3cccc(C(F)(F)F)c3)C2)c1	CIB1 and αIIb interaction (CIB1-GST : F-αIIb peptide) (Homo sapiens, UniProt Q99828)	not satisfied
CN1CCc2cccc3c2[C@H]1Cc1ccc(O)c(O)c1-3	CIB1 and αIIb interaction (CIB1-GST : F-αIIb peptide) (Homo sapiens, UniProt Q99828)	not satisfied
Cc1ccc(-n2nc(C(C)(C)C)cc2NC(=O)Nc2ccc(OCCN3CCOCC3)c3ccccc23)cc1	CIB1 and αIIb interaction (CIB1-GST : F-αIIb peptide) (Homo sapiens, UniProt Q99828)	not satisfied
O=C1OC(c2ccc(O)c(S(=O)(=O)[O-])c2)(c2ccc(O)c(S(=O)(=O)[O-])c2)c2c(Br)c(Br)c(Br)c(Br)c21.[Na+].[Na+]	CIB1 and αIIb interaction (CIB1-GST : F-αIIb peptide) (Homo sapiens, UniProt Q99828)	satisfied
O=C(O)C(F)(F)F.O=C(O)c1csc(-n2nc(-c3ccc(F)c(Cc4ccccc4)c3)cc2O)n1	CIB1 and αIIb interaction (CIB1-GST : F-αIIb peptide) (Homo sapiens, UniProt Q99828)	not satisfied
Cc1ccc(Cl)cc1NC(=O)c1nc[nH]c1C(=O)Nc1nc2ccccc2[nH]1	CIB1 and αIIb interaction (CIB1-GST : F-αIIb peptide) (Homo sapiens, UniProt Q99828)	not satisfied
Cl.Nc1cc(C(F)(F)F)ccc1S	CIB1 and αIIb interaction (CIB1-GST : F-αIIb peptide) (Homo sapiens, UniProt Q99828)	satisfied
